- target under test: Short transient receptor potential channel 4 (Mus musculus) (UniProt Q9QUQ5)
- assay procedure: calcium flux activators in TRPC4/5HT1a cells, counter-screen for TRPC4 activator project, cell-based, second counter screen, HEK293 TRPC4/5HT1a, Fluo-4 (AID 434977);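 for activation: plate controls were assay buffer for no effect and maximal serotonin response for full effect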
- measurement setup: Fluo-4 calcium flux, at 10 µM; stronger effect = higher value
Activity calls are given as the source filed them.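 Rule for the calls: active = calcium signal rise above buffer-control mean plus 5 SD in both duplicates, and also a hit in the primary screen; inactive = the rest.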
readout type: activation

compound	activation
CCn1c(NCc2ccco2)nc2ccccc21	inactive
CCN(CC(=O)NCc1ccc(Cl)cc1)CC(=O)NC1(C#N)CCCC1	inactive
C/C(N)=C(/C#N)C(=O)COC(=O)CC12CC3CC(CC(C3)C1)C2	inactive
O=C(Nc1ccc2c(c1)OCO2)c1cnn2cccnc12	inactive
Cc1c(N)c(C(C)(C)C)cc(C(C)(C)C)c1[N+](=O)[O-]	inactive
CC(C)c1nc2ccc(Br)cn2c1NC1CCCC1	inactive

Please report activation for every entry that follows.
1. CCC(=O)N1CCc2cc(Br)cc(S(=O)(=O)NCCCN(C)Cc3ccccc3)c21
2. COc1ccc(C(CNC(=O)/C=C/c2c(Cl)nc3ccccn23)N(C)C)cc1 (stereo unspecified)
3. CN(C)CCCNc1c2c(nc3cc(-c4cccc(F)c4)nn13)CCC2
4. CCCN1C2=NCCN2c2cc(C)c(C)cc21
5. COc1ccc(OC)c(Nc2cc(C)nc3ccc(C)cc23)c1

["33.1% (active)", "7.37% (active)", "inactive", "inactive", "inactive"]
